The origin of these recorded values is patent US8143268B2.

Experiment: Compound cytotoxicity (CC50)
Format: cell-based
Conditions: wells without virus
This section presents compounds with their documented CC50 at 6 days values.
QUANTITY: CC50 at 6 days

• Cc1ccc2nc(C(=O)NCc3ccc(F)cc3)c(O)c(=O)n2c1 [7-Me, CONHCH2 (4F-Ph)] = > 1 µM
• O=C(NCc1ccc(F)cc1)c1nc2ccc(Br)cn2c(=O)c1O [7-Br, CONHCH2 (4F-Ph)] = > 1 µM
• Cc1ccc2nc(C(=O)NCc3ccc(Cl)c(Cl)c3)c(O)c(=O)n2c1 [7-Me, CONHCH2 (3,4-ClPh)] = > 1 µM
